Tested on: CESS (Acute Myeloid Leukemia)
Assay: Bliss excess, mean over the matrix (fraction); higher = more synergy
measure: Bliss excess
Lab note: record just the number, no unit beside it.

1. CN(C)CCCOc1ccc(-c2ccc3ncc4c(c3c2)n(C2CCOCC2)c(=O)n4C)cn1 [AZD0156] + CCN(CCO)CCCOc1ccc2c(Nc3cc(CC(=O)Nc4cccc(F)c4)[nH]n3)ncnc2c1 [AZD2811] (first compound max 1 µM, 7x7, partner max 1 µM) ... 0.0178

Enquiry: So what does the record say about Bliss excess for CC1(C)CCC(CN2CCN(c3ccc(C(=O)NS(=O)(=O)c4ccc(NCC5CCOCC5)c([N+](=O)[O-])c4)c(Oc4cnc5[nH]ccc5c4)c3)CC2)=C(c2ccc(Cl)cc2)C1 [Venetoclax] + Cn1cnc2c(F)c(Nc3ccc(Br)cc3Cl)c(C(=O)NOCCO)cc21 [Selumetinib] (first compound max 1 µM, 7x7, partner max 3 µM) ?
Return: -0.0674

----------
Catalogue of molecules with associated combination Emax
System: NCI-H841 (Small Cell Lung Carcinoma)
Assay: combination Emax (second highest fraction inhibited in the dose matrix, 72 h); higher = more inhibition; extreme values may be limits of the assay
# answer = number (no unit)

Sample records with combination Emax:
1. CN(C)CCCOc1ccc(-c2ccc3ncc4c(c3c2)n(C2CCOCC2)c(=O)n4C)cn1 [AZD0156] + O=C(c1cc(Cc2n[nH]c(=O)c3ccccc23)ccc1F)N1CCN(C(=O)C2CC2)CC1 [Olaparib] (first compound max 3 µM, partner max 3 µM) ... 0.208
2. CC(=O)c1c(C)c2cnc(Nc3ccc(N4CCNCC4)cn3)nc2n(C2CCCC2)c1=O [Palbociclib] + Cn1cnc2c(F)c(Nc3ccc(Br)cc3Cl)c(C(=O)NOCCO)cc21 [Selumetinib] (first compound max 10 µM, 7x7, partner max 10 µM) ... 0.16
3. COc1nnc2ccc(N3CCC(c4ccc(OCCN5CCN(C)C(=O)[C@H]5C)cc4)CC3)nn12 [AZD5153] + CCN(CCO)CCCOc1ccc2c(Nc3cc(CC(=O)Nc4cccc(F)c4)[nH]n3)ncnc2c1 [AZD2811] (first compound max 1 µM, 7x7, partner max 1 µM) ... 0.428

# ---- query molecule ----
Enquiry: Fill in: combination Emax of C=CCn1c(=O)c2cnc(Nc3ccc(N4CCN(C)CC4)cc3)nc2n1-c1cccc(C(C)(C)O)n1 [AZD1775] + Nc1ccn([C@@H]2O[C@H](CO)[C@@H](O)C2(F)F)c(=O)n1 [Gemcitabine] (first compound max 1 µM, partner max 0.3 µM) is ___
Return: 0.726

----------
System: CGTH-W-1 (Thyroid Gland Carcinoma)
Assay: combination Emax (second highest fraction inhibited in the dose matrix, 72 h); higher = more inhibition; extreme values may be limits of the assay
measure: combination Emax
Hey, just send me the number, nothing else.

1. CC(=O)c1c(C)c2cnc(Nc3ccc(N4CCNCC4)cn3)nc2n(C2CCCC2)c1=O [Palbociclib] + Cn1cnc2c(F)c(Nc3ccc(Br)cc3Cl)c(C(=O)NOCCO)cc21 [Selumetinib] (first compound max 10 µM, 7x7, partner max 10 µM) ... 0.14

// moving on: another record for combination Emax
Enquiry: Look at this compound and give its reported combination Emax. N#Cc1cnc(Nc2cc(NC[C@H]3CNCCO3)c(C(F)(F)F)cn2)cn1 [SRA737] + C=CCn1c(=O)c2cnc(Nc3ccc(N4CCN(C)CC4)cc3)nc2n1-c1cccc(C(C)(C)O)n1 [AZD1775] (first compound max 10 µM, partner max 1 µM)
Return: 0.432

----------
Tested on: SK-HEP-1 (Hepatocellular Carcinoma)
Assay: Bliss excess, mean over the matrix (fraction); higher = more synergy
measure: Bliss excess
A bare number is all that is needed in reply.

1) Cc1cc2ncnn2cc1Nc1ncc2c(n1)n(C1CCOCC1)c(=O)n2C [AZD7648] + CCN(CCO)CCCOc1ccc2c(Nc3cc(CC(=O)Nc4cccc(F)c4)[nH]n3)ncnc2c1 [AZD2811] (first compound max 10 µM, 7x7, partner max 1 µM) ... 0.0517

Attention now shifts to the item below.
Enquiry: For Cc1c2c(nn1C)CSCc1cc(n(C)n1)CSc1cc(c3ccccc3c1)OCCCc1c(C(=O)O)n(C)c3c-2c(Cl)ccc13 [AZD5991] + C1CN(CCC1(C(=O)N[C@@H](CCO)C2=CC=C(C=C2)Cl)N)C3=NC=NC4=C3C=CN4 [Capivasertib] (first compound max 1 µM, 7x7, partner max 3 µM) , what is its reported Bliss excess?
Return: 0.0194

----------
Test system: JIMT-1 (Breast Carcinoma)
Assay: Bliss excess, mean over the matrix (fraction); higher = more synergy
Reported Bliss excess values for a set of compounds
Reply: number alone, nothing else.

1) COc1cccc(OCCCN)c1-c1cc(Nc2cnc(C#N)cn2)n[nH]1 [Prexasertib] + CCc1c2c(nc3ccc(O)cc13)-c1cc3c(c(=O)n1C2)COC(=O)[C@]3(O)CC [SN-38] (first compound max 1 µM, 7x7, partner max 0.3 µM) ... 0.0096
2) COc1cccc2c1C(=O)c1c(O)c3c(c(O)c1C2=O)C[C@@](O)(C(=O)CO)C[C@@H]3O[C@H]1C[C@H](N)[C@H](O)[C@H](C)O1 [Doxorubicin] + Cc1cc2ncnn2cc1Nc1ncc2c(n1)n(C1CCOCC1)c(=O)n2C [AZD7648] (first compound max 1 µM, 7x7, partner max 10 µM) ... 0.0514
3) Cc1c2c(nn1C)CSCc1cc(n(C)n1)CSc1cc(c3ccccc3c1)OCCCc1c(C(=O)O)n(C)c3c-2c(Cl)ccc13 [AZD5991] + C[C@@H](Nc1cc(F)cc(F)c1)c1cc(C(=O)N(C)C)cc2c(=O)cc(N3CCOCC3)oc12 [AZD8186] (first compound max 1 µM, 7x7, partner max 3 µM) ... -0.0492
4) CN(C)CCCOc1ccc(-c2ccc3ncc4c(c3c2)n(C2CCOCC2)c(=O)n4C)cn1 [AZD0156] + CCN(CCO)CCCOc1ccc2c(Nc3cc(CC(=O)Nc4cccc(F)c4)[nH]n3)ncnc2c1 [AZD2811] (first compound max 1 µM, 7x7, partner max 1 µM) ... -0.0181
5) CN(CCO)CC[C@H](CSc1ccccc1)Nc1ccc(S(=O)(=O)NC(=O)c2ccc(N3CCC([C@@H](O)c4ccccc4-c4ccc(Cl)cc4)CC3)cc2)cc1S(=O)(=O)C(F)(F)F [AZD4320] + C1CN(CCC1(C(=O)N[C@@H](CCO)C2=CC=C(C=C2)Cl)N)C3=NC=NC4=C3C=CN4 [Capivasertib] (first compound max 1 µM, 7x7, partner max 3 µM) ... -0.0424

Lab note: next compound to report on.
Enquiry: Need Bliss excess of CC1(C)CCC(CN2CCN(c3ccc(C(=O)NS(=O)(=O)c4ccc(NCC5CCOCC5)c([N+](=O)[O-])c4)c(Oc4cnc5[nH]ccc5c4)c3)CC2)=C(c2ccc(Cl)cc2)C1 [Venetoclax] + Cn1cnc2c(F)c(Nc3ccc(Br)cc3Cl)c(C(=O)NOCCO)cc21 [Selumetinib] (first compound max 1 µM, 7x7, partner max 3 µM) , thanks.
Return: -0.0429

----------
System: RH-41 (Rhabdomyosarcoma)
Assay: combination Emax (second highest fraction inhibited in the dose matrix, 72 h); higher = more inhibition; extreme values may be limits of the assay
measure: combination Emax
Write no unit; give the number alone.

# annotated cases, reported combination Emax shown
1) CC1(C)CCC(CN2CCN(c3ccc(C(=O)NS(=O)(=O)c4ccc(NCC5CCOCC5)c([N+](=O)[O-])c4)c(Oc4cnc5[nH]ccc5c4)c3)CC2)=C(c2ccc(Cl)cc2)C1 [Venetoclax] + Cn1cnc2c(F)c(Nc3ccc(Br)cc3Cl)c(C(=O)NOCCO)cc21 [Selumetinib] (first compound max 1 µM, 7x7, partner max 3 µM) ... 0.289
2) NC1(C(=O)N[C@@H](CCO)c2ccc(Cl)cc2)CCN(c2ncnc3[nH]ccc23)CC1 [Capivasertib] + CC(=O)c1c(C)c2cnc(Nc3ccc(N4CCNCC4)cn3)nc2n(C2CCCC2)c1=O [Palbociclib] (first compound max 10 µM, 7x7, partner max 10 µM) ... 0.945

Read the next record carefully.
Enquiry: Recorded combination Emax for NC1(C(=O)N[C@@H](CCO)c2ccc(Cl)cc2)CCN(c2ncnc3[nH]ccc23)CC1 [Capivasertib] + CCN(CCO)CCCOc1ccc2c(Nc3cc(CC(=O)Nc4cccc(F)c4)[nH]n3)ncnc2c1 [AZD2811] (first compound max 10 µM, 7x7, partner max 1 µM) , please?
Return: 0.943

----------
Test system: DMS-53 (Small Cell Lung Carcinoma)
Assay: Bliss excess, mean over the matrix (fraction); higher = more synergy
In this section we review reported Bliss excess values for a set of compounds.

Below: 2 compounds and their reported Bliss excess.
1) CC1(C)CCC(CN2CCN(c3ccc(C(=O)NS(=O)(=O)c4ccc(NCC5CCOCC5)c([N+](=O)[O-])c4)c(Oc4cnc5[nH]ccc5c4)c3)CC2)=C(c2ccc(Cl)cc2)C1 [Venetoclax] + CN(C)CCCOc1ccc(-c2ccc3ncc4c(c3c2)n(C2CCOCC2)c(=O)n4C)cn1 [AZD0156] (first compound max 1 µM, 7x7, partner max 1 µM) ... 0.0619
2) Cn1cnc2c(F)c(Nc3ccc(Br)cc3Cl)c(C(=O)NOCCO)cc21 [Selumetinib] + C=CCn1c(=O)c2cnc(Nc3ccc(N4CCN(C)CC4)cc3)nc2n1-c1cccc(C(C)(C)O)n1 [AZD1775] (first compound max 10 µM, partner max 1 µM) ... -0.0174

Enquiry: May I ask what Bliss excess has been recorded for C=CCn1c(=O)c2cnc(Nc3ccc(N4CCN(C)CC4)cc3)nc2n1-c1cccc(C(C)(C)O)n1 [AZD1775] + C1CN(CCC1(C(=O)N[C@@H](CCO)C2=CC=C(C=C2)Cl)N)C3=NC=NC4=C3C=CN4 [Capivasertib] (first compound max 3 µM, partner max 3 µM) ?
Return: -0.007
